# tested_target: BTK kinase (Homo sapiens)
# Construct: purchased Invitrogen PR5442A
# Sequence (Q06187 whole entry): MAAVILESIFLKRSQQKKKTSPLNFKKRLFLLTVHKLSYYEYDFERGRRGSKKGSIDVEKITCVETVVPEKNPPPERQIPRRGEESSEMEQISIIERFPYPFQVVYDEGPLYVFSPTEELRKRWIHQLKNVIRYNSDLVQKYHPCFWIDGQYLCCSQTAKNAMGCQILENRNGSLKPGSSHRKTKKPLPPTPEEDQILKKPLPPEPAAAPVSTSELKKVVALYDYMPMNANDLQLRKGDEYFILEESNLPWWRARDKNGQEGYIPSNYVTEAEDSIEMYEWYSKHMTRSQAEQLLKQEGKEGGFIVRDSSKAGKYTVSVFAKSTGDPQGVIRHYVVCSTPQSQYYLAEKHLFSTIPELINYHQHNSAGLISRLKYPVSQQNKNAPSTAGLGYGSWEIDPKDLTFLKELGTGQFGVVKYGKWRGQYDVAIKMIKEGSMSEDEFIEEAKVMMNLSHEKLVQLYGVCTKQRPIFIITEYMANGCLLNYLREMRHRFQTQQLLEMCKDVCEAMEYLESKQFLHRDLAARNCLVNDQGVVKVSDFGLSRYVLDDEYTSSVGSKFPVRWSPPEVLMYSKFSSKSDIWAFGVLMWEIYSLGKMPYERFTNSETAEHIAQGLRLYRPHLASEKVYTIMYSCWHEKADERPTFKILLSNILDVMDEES
# test_method_notes: Assay of inhibition activity of BTK in vitro (HTRF kit, read on Envision)
# Format: biochemical
# stated_conditions: 1.0 nM BTK, 1 μM biotin-TK1 peptide, 20 μM ATP, 23° C., tested by Envision; read-out: BTK IC50
pIC50: −log10 of the molar value.
parameter_measured: pIC50

{"molecule": "CN(C)C/C=C/C(=O)N1CCC[C@@H](n2nc(-c3ccc(Oc4ccccc4)cc3)c3c(N)n[nH]c(=O)c32)C1", "parameter_measured": "pIC50", "reported_measurement": "> 7.00"}

# batch: return pIC50 for each of the 4 molecules below
1. Cc1ccn2c(=O)c(-c3cccc(-c4cc(Nc5ccc(N6CCN(C)CC6)cn5)c(=O)n(C)c4)c3C)cnc2c1
2. C=CC(=O)N[C@H]1CC[C@@H](n2nc(-c3ccc(OC4CC5CC5C4)cc3)c3c(N)n[nH]c(=O)c32)CC1 (some centres unmarked)
3. C=CC(=O)N1CCCC(n2nc(-c3ccc(Oc4ccccc4)cc3)c3c(N)nn(C4CC4)c(=O)c32)C1 (centres unmarked)
4. C=CC(=O)N[C@H]1CC[C@@H](n2nc(-c3ccc(Oc4ccccc4)cc3)c3c(N)n[nH]c(=O)c32)CC1

["5.00 to 6.00", "> 7.00", "> 7.00", "> 7.00"]
